Target: T1, hIL-7R (Example 11) (human, UniProt P16871 21-239)
T1 construct: Called full length hIL-7R for the mRNA display and hIL-7R for the Biacore runs; also called full length hIL-7R; human IL-7R
T1 chain: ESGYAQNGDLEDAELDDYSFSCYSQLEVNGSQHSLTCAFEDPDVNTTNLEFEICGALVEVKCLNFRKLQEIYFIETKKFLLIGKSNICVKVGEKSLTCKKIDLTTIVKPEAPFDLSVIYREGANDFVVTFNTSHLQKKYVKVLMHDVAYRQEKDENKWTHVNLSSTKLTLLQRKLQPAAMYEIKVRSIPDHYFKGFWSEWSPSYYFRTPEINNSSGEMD
Test: NGS enrichment ratio of the mutation in the scFv library selected at 0.2 nM hIL-7R
Experimental readout: 0.2 nM NGS

{"Binder": "18B1 LC P95A (antibody, human IgG1, kappa, V domains shown) VH: EVQLVESGGGLVQPGRSLRLSCAASGFTFDDHAMHWVRQAPGKGLEWVSGISWNSRGIGYADSVKGRFTIFRDNAKNSLYLQMNSLRAEDTALYYCAKDEYSRGYYVLDVWGQGTTVTVSS VL: AIQLTQSPSSLSASVGDRVTITCRASQGISSALAWYQQKPGKAPKLLIYDASSLESGVPSRFSGSGSGTDFTLTISSLQPEDFATYYCQQFNSYALWITFGQGTRLEIKR", "Data value": 0.03}
{"Binder": "18B1 LC S31A (antibody, human IgG1, kappa, V domains shown) VH: EVQLVESGGGLVQPGRSLRLSCAASGFTFDDHAMHWVRQAPGKGLEWVSGISWNSRGIGYADSVKGRFTIFRDNAKNSLYLQMNSLRAEDTALYYCAKDEYSRGYYVLDVWGQGTTVTVSS VL: AIQLTQSPSSLSASVGDRVTITCRASQGISAALAWYQQKPGKAPKLLIYDASSLESGVPSRFSGSGSGTDFTLTISSLQPEDFATYYCQQFNSYPLWITFGQGTRLEIKR", "Data value": 0.6}
{"Binder": "18B1 LC F91A (antibody, human IgG1, kappa, V domains shown) VH: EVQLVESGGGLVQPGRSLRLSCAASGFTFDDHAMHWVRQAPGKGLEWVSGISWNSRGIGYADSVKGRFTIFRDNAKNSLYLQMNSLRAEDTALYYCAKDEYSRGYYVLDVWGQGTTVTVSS VL: AIQLTQSPSSLSASVGDRVTITCRASQGISSALAWYQQKPGKAPKLLIYDASSLESGVPSRFSGSGSGTDFTLTISSLQPEDFATYYCQQANSYPLWITFGQGTRLEIKR", "Data value": 0.05}
{"Binder": "18B1 LC S26A (antibody, human IgG1, kappa, V domains shown) VH: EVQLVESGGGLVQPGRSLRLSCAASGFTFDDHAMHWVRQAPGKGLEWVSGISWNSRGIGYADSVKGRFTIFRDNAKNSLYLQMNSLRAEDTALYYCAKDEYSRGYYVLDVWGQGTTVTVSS VL: AIQLTQSPSSLSASVGDRVTITCRAAQGISSALAWYQQKPGKAPKLLIYDASSLESGVPSRFSGSGSGTDFTLTISSLQPEDFATYYCQQFNSYPLWITFGQGTRLEIKR", "Data value": 1.32}
{"Binder": "18B1 LC R24A (antibody, human IgG1, kappa, V domains shown) VH: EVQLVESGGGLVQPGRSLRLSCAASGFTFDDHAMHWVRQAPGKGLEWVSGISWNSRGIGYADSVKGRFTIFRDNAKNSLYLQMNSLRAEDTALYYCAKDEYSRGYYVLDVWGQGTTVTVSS VL: AIQLTQSPSSLSASVGDRVTITCAASQGISSALAWYQQKPGKAPKLLIYDASSLESGVPSRFSGSGSGTDFTLTISSLQPEDFATYYCQQFNSYPLWITFGQGTRLEIKR", "Data value": 0.91}
